Listed next: entries and their corresponding Plant response rating, Barnyardgrass.
# Test system: barnyardgrass
# test_summary: Test F preemergence test
# Format: in vivo, Echinochloa crus-galli
# measurement_context: Preemergence; 16 g ai/ha; scale 0 to 100
recorded_metric: Plant response rating, Barnyardgrass

compound: Cn1nc(C(F)(F)F)c(CS(=O)(=O)c2cccc[n+]2[O-])c1OC(F)F [Compound 4]
quantitative_result: 65
--
compound: CC(c1c(C(F)(F)F)nn(C)c1OC(F)F)S(=O)(=O)c1cccc[n+]1[O-] (stereo not shown) [Compound 5]
quantitative_result: 75
--
compound: Cc1cc[n+]([O-])c(S(=O)(=O)Cc2c(C(F)(F)F)nn(C)c2Cl)c1 [Compound 19]
quantitative_result: 70
--
compound: Cc1cc[n+]([O-])c(S(=O)(=O)C(Cl)c2c(C(F)(F)F)nn(C)c2Cl)c1 (racemic) [Compound 22]
quantitative_result: 10
